System: MDA-MB-231
Test: Antiproliferative activity against ER/PR/HER2 deficient human MDA-MB-231 cells after 48 hrs by MTT assay
Format: functional, cell-based
Conditions: MDA-MB-231, 48 h
property name: IC50 (µM)
Answers are plain numbers, in µM.

Worked set:
O=C1NC(=S)N(c2ccccc2)C(=O)/C1=C/C=C/c1cccs1 ... 8.3
O=C1NC(=S)NC(=O)C1=C/C=C/c1cccc2ccccc12 ... 4.5
O=C1NC(=S)NC(=O)C1=C/C=C/c1ccco1 ... 16.5
CCN1C(=O)/C(=C\C=C\c2cccs2)C(=O)NC1=S ... 8.5
CN1C(=O)/C(=C\C=C\c2cccs2)C(=O)NC1=S ... 8.6

Let us examine a further case.
The measured IC50 associated with "O=C1NC(=S)NC(=O)C1=C/C=C/c1cccs1" reads 7.6

----------
Give selectivity ratio for every item shown.
Test: Selectivity ratio of cytotoxicity against human MCF10A cells to IC50 for human UACC-903 cells harboring BRAF mutant
Type: toxicity, cell-based
Details: MCF10A cells versus UACC-903 cells harboring BRAF mutant
Answers are plain numbers.

O=C1NC(=S)NC(=O)C1=C/C=C/c1cccs1 ... 3

Let us examine a further case.
The measured selectivity ratio associated with "O=C1NC(=S)N(c2ccccc2)C(=O)/C1=C/C=C/c1cccs1" reads 3

----------
Assay: Antiproliferative activity against human A375M cells after 48 hrs by MTT assay
Type: functional, cell-based
property name: pIC50
Numbers only, as −log10 of the molar value.

O=C1NC(=S)NC(=O)C1=C/C=C/c1cccs1 ... 4.97

Let us examine a further case.
The measured pIC50 associated with "O=C1NC(=S)N(c2ccccc2)C(=O)/C1=C/C=C/c1cccs1" reads 4.83

----------
Experiment: Selectivity ratio of cytotoxicity against human MCF10A cells to cytotoxicity against human MCF7 cells
Format: toxicity, cell-based
Details: MCF10A cells versus MCF7 cells
property name: selectivity ratio
Answers are plain numbers.

O=C1NC(=S)NC(=O)C1=C/C=C/c1cccs1 ... 2

Let us examine a further case.
The measured selectivity ratio associated with "O=C1NC(=S)N(c2ccccc2)C(=O)/C1=C/C=C/c1cccs1" reads 2

----------
Give viability at 48 h, 25 µM for every item shown.
Assay: Cytotoxicity against human MCF10A cells assessed as cell viability at 25 uM after 48 hrs by MTT assay relative to control
Format: cell-based, MCF-10A
Conditions: read-out: Activity
Give bare numbers, in %.

O=C1NC(=S)N(c2ccccc2)C(=O)/C1=C/C=C/c1cccs1 ... 60

The measured viability at 48 h, 25 µM associated with "O=C1NC(=S)NC(=O)C1=C/C=C/c1cccs1" reads 60

----------
Test: Selectivity ratio of cytotoxicity against human MCF10A cells to cytotoxicity against human MDA-MB-231 cells
Type: toxicity, cell-based
Details: MCF10A cells versus MDA-MB-231 cells
Give selectivity ratio for every item shown.
Answers are plain numbers.

O=C1NC(=S)NC(=O)C1=C/C=C/c1cccs1 ... 2

Let us examine a further case.
The measured selectivity ratio associated with "O=C1NC(=S)N(c2ccccc2)C(=O)/C1=C/C=C/c1cccs1" reads 2

----------
System: UACC-903
Assay: Cytotoxicity against human UACC-903 cells assessed as cell viability at 25 uM after 48 hrs by MTT assay relative to control
Format: functional, cell-based
Conditions: UACC-903, 48 h
property name: IC50 (µM)
Numbers only, in µM.

Worked set:
CCN1C(=O)C(=C/C=C/c2ccccc2)C(=O)N(CC)C1=S ... 15.2
CCN1C(=O)\C(=C/C=C/C=C/c2ccco2)C(=O)NC1=S ... 7.6
O=C1NC(=S)N(c2ccccc2)C(=O)/C1=C/C=C/c1cccs1 ... 3.8
CCN1C(=O)/C(=C\C=C\c2ccco2)C(=O)NC1=S ... 16.2
CCN1C(=O)/C(=C/C=C/c2cccc3ccccc23)C(=O)NC1=S ... 23.4

Provide each entry's IC50 from the list below.
1. C=CCN1C(=O)/C(=C\C=C\c2ccccc2)C(=O)N(CC)C1=S
2. O=C1NC(=S)NC(=O)C1=C/C=C/c1cccc2ccccc12
3. C=CCN1C(=O)C(=C/C=C/c2ccco2)C(=O)N(CC=C)C1=S
4. CN1C(=O)/C(=C\C=C\c2cccs2)C(=O)NC1=S
5. O=C1NC(=S)NC(=O)C1=C/C=C/c1ccccc1
6. O=C1NC(=S)NC(=O)C1=C/C=C/C=C/c1ccccc1

1: 21; 2: 4.2; 3: 17.6; 4: 5.5; 5: 9.1; 6: 6.5

----------
Tested on: MCF7
Experiment: Antiproliferative activity against human MCF7 cells expressing ER/PR/HER2 after 48 hrs by MTT assay
Type: functional, cell-based
Details: MCF7, 48 h
property name: pIC50
Give bare numbers, as −log10 of the molar value.

CN1C(=O)/C(=C\C=C\c2cccs2)C(=O)NC1=S ... 4.63
O=C1NC(=S)NC(=O)C1=C/C=C/c1ccco1 ... 4.55
O=C1NC(=S)NC(=O)C1=C/C=C/c1cccs1 ... 4.79
CCN1C(=O)/C(=C\C=C\c2cccs2)C(=O)NC1=S ... 4.62

Let us examine a further case.
The measured pIC50 associated with "O=C1NC(=S)N(c2ccccc2)C(=O)/C1=C/C=C/c1cccs1" reads 4.78

----------
System: UACC-903
Assay: Cytotoxicity against human UACC-903 cells assessed as cell viability at 25 uM after 48 hrs by MTT assay relative to control
Format: functional, cell-based
Conditions: UACC-903, 48 h
property name: pIC50
Answers are plain numbers, as −log10 of the molar value.

O=C1NC(=[Se])NC(=O)C1=C/C=C/c1ccco1 ... 5.64
O=C1NC(=S)NC(=O)C1=C/C=C/c1cccnc1 ... 4.74
C=CCN1C(=O)/C(=C\C=C\c2cccs2)C(=O)NC1=S ... 5.17

Provide each entry's pIC50 from the list below.
1. O=C1NC(=[Se])NC(=O)C1=C/C=C/c1ccccc1
2. O=C1NC(=S)NC(=O)C1=C/C=C/c1ccco1
3. C=CCN1C(=O)/C(=C\C=C\c2cccs2)C(=O)N(CC)C1=S
4. C=CCN1C(=O)/C(=C\C=C\c2ccco2)C(=O)N(CC)C1=S
5. CCN1C(=O)/C(=C\C=C\c2ccccc2)C(=O)NC1=S
6. CCN1C(=O)C(=C/C=C/c2ccco2)C(=O)N(CC)C1=S

4.87
5.10
5.21
4.84
5.10
4.73

Provide each entry's pIC50 from the list below.
1. O=C1NC(=[Se])NC(=O)C1=C/C=C/c1cccs1
2. O=C1NC(=S)NC(=O)C1=C/C=C/c1cccs1
3. C=CCN1C(=O)C(=C/C=C/c2ccccc2)C(=O)N(CC=C)C1=S
4. CCN1C(=O)/C(=C\C=C\c2cccs2)C(=O)NC1=S

5.11
5.40
4.74
5.34
